Target: Serine/threonine-protein phosphatase 5 (Homo sapiens, UniProt P53041)
Sequence (P53041 whole entry): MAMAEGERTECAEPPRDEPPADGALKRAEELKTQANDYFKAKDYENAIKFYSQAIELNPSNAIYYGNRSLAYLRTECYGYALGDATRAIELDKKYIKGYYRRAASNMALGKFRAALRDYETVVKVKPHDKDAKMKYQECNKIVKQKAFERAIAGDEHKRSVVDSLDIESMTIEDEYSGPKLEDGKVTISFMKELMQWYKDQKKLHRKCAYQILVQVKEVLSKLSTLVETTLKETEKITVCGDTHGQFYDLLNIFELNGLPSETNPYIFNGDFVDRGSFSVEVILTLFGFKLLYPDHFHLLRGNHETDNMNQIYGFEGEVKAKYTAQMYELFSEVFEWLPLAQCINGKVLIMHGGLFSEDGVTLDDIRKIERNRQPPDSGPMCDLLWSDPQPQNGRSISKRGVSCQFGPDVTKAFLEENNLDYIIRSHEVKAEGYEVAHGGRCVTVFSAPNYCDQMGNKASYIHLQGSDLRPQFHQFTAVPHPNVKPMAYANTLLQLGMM
Assay: Fluorescence Polarization Assay
Settings: pH 7.4; 25 °C
pKd: −log10 of the molar value.

Substance: H-DDTSRIEEVD-OH
pKd: 6.38
